// provenance: paper PMC4161152

Test system: human Raji lymphoma cells
Assay Method Text: Raji lymphoma cell MTT assay
Format: cell-based
Endpoint Label: activity in Raji lymphoma cell proliferation assay (in words)

| Compound | Val |
| --- | --- |
| CC(C)Cn1c(=O)n(C)c(=O)c2[nH]c(=O)c(Cc3cccc4ccccc34)nc21 | inactive |
| CC(C)Cn1c(=O)n(C)c(=O)c2c1nc(Cc1cccc3ccccc13)c(=O)n2CCCCCCO [Compound 14d] | inactive |
| Cc1n[nH]c(C)c1Cc1nc2c(nc1CCCCCO)c(=O)n(C)c(=O)n2CC(C)C | inactive |
